Listed next: entries and their corresponding fold change of affinity.
testSystem: T1, Human CD137 ECD (human)
T1 construct: also called 4-1BB
T1 sequence (chain, as listed by the source limits assumed): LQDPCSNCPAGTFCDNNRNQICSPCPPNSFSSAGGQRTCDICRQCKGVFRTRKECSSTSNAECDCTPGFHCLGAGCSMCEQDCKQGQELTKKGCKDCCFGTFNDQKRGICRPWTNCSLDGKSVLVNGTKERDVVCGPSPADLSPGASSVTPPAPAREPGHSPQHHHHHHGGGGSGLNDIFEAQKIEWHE
protocolText: SPR, vs parent H183/L072
Your answer is read as fold, so omit the unit and give the number.

dBBDu183H V63K / dBBDu072L (antibody, name in Kabat numbering, V domains shown, as m1, one VH change) VH: QVQLVESGGGLVQPGRSLRLSCAASGFTFSNAWMHWVRQAPGKGLEWVAQIKDKGNAYAAYYAPSKKGRFTISRDDSKNSIYLQMNSLKTEDTAVYYCHYVHYASASTVLPAFGVDAWGQGTTVTVSS VL: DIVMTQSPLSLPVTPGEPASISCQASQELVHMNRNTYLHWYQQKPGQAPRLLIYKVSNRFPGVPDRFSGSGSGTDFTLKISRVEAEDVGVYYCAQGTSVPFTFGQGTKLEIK ... 0.8

Let's switch to this binder now.
Requested read-out: fold change of affinity. Entry: dBBDu183H K64W / dBBDu072L (antibody, name in Kabat numbering, V domains shown, as m1, one VH change) VH: QVQLVESGGGLVQPGRSLRLSCAASGFTFSNAWMHWVRQAPGKGLEWVAQIKDKGNAYAAYYAPSVWGRFTISRDDSKNSIYLQMNSLKTEDTAVYYCHYVHYASASTVLPAFGVDAWGQGTTVTVSS VL: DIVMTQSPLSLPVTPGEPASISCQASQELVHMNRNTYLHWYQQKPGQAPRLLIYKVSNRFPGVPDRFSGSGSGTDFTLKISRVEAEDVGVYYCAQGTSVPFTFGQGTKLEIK
1.2
